Assay: Pilot PK study of orally applied KB-R7943 in control and STZ-induced diabetic rats (LC-MS/MS)
Type: in vivo, rat
Settings: Wistar, rat, hypothalamus, po, 10 mg/kg, STZ-diabetic rats, 10 mg/kg p.o. once
Procedure: Chromatographic separation was achieved by injecting 5 μL of the sample extract (on each instrument) into a Zorbax SB-C8 150 mm × 4.6 mm × 1.8 μm column. The mobile phase was a mixture in a gradient mode of two components: solvent A - 0.1% formic acid in water and solvent B - 0.1% formic acid in acetonitrile. […] Analytes were determined by selecting two characteristic target reactions (MRM transitions) and the retention time of the analytes. […]
REPORTED_ENDPOINT: AUC(0-inf) (ng·h/mL)
Output spec: scalar in ng·h/mL, unitless text.

[Q] Give the reported value of AUC(0-inf) for this record: N=C(N)SCCc1ccc(OCc2ccc([N+](=O)[O-])cc2)cc1 [KB-R7943]
[A] 1020

* * *

assay: Pilot PK study of orally applied KB-R7943 in control and STZ-induced diabetic rats (LC-MS/MS); type: in vivo, rat; details: Wistar, rat, plasma, po, 10 mg/kg, systemic circulation after oral application, rats
REPORTED_ENDPOINT: Tmax

[Q] Give the reported value of Tmax for this record: `N=C(N)SCCc1ccc(OCc2ccc([N+](=O)[O-])cc2)cc1`
[A] ~1 h

* * *

Assay: Pilot PK study of orally applied KB-R7943 in control and STZ-induced diabetic rats (LC-MS/MS)
Type: in vivo, rat
Details: Wistar, rat, plasma, po, 10 mg/kg, plasma, STZ-diabetic rats, 10 mg/kg p.o. once; read-out: AUC(0-24)
Procedure: Chromatographic separation was achieved by injecting 5 μL of the sample extract (on each instrument) into a Zorbax SB-C8 150 mm × 4.6 mm × 1.8 μm column. The mobile phase was a mixture in a gradient mode of two components: solvent A - 0.1% formic acid in water and solvent B - 0.1% formic acid in acetonitrile. […] Analytes were determined by selecting two characteristic target reactions (MRM transitions) and the retention time of the analytes. […]
REPORTED_ENDPOINT: AUC(0-t)
Answer as a quantity: numeral, then unit.

[Q] Give the reported value of AUC(0-t) for this record: N=C(N)SCCc1ccc(OCc2ccc([N+](=O)[O-])cc2)cc1 [KB-R7943]
[A] 60.6 ng·h/mL

* * *

experiment: Pilot PK study of orally applied KB-R7943 in control and STZ-induced diabetic rats (LC-MS/MS); format: in vivo, rat; details: Wistar, rat, heart, po, 10 mg/kg, STZ-diabetic rats, 10 mg/kg p.o. once
REPORTED_ENDPOINT: Cmax
Answer as a quantity: numeral, then unit.

[Q] Give the reported value of Cmax for this record: `N=C(N)SCCc1ccc(OCc2ccc([N+](=O)[O-])cc2)cc1`
[A] 5600 ng/mL

* * *

experiment: Pilot PK study of orally applied KB-R7943 in control and STZ-induced diabetic rats (LC-MS/MS); format: in vivo, rat; settings: Wistar, rat, cortex, po, 10 mg/kg, control rats, 10 mg/kg p.o. once
REPORTED_ENDPOINT: Tmax
Answer as a quantity: numeral, then unit.

[Q] Give the reported value of Tmax for this record: N=C(N)SCCc1ccc(OCc2ccc([N+](=O)[O-])cc2)cc1 [KB-R7943]
[A] 24 h

* * *

test: Pilot PK study of orally applied KB-R7943 in control and STZ-induced diabetic rats (LC-MS/MS); assay type: in vivo, rat; details: Wistar, rat, heart, po, 10 mg/kg, STZ-diabetic rats, 10 mg/kg p.o. once
REPORTED_ENDPOINT: half-life (h)
Output spec: scalar in h, unitless text.

[Q] Give the reported value of half-life for this record: N=C(N)SCCc1ccc(OCc2ccc([N+](=O)[O-])cc2)cc1 [KB-R7943]
[A] 5.7
